# Test system: M14
# test-name: NCI tumour cell line growth inhibition, 48 h
The source made the active and inactive calls. Cut-off read from the data, not from the text of the source: active = GI50 up to about 1.1 µM and inactive = higher.
Quick reference for GI50 among some compounds

Problem: Would you kindly share the measured GI50 for CCCCCCCCCCCCCCCC[N+](C)(C)CCl ?
Solution: 2.31 µM (inactive)

Problem: Queued: COc1ccc(OC2OC(CO)C(O)C(O)C2O)cc1 (stereo not given)
Solution: > 100 µM (inactive)

Problem: Queued: CC1=C2[C@@H](c3ccccc3)C3C=CC2(c2ccccc23)N(C(=O)Nc2cccc3ccccc23)C1=O (stereo not given in full)
Solution: > 100 µM (inactive)

Problem: Queued: N#CC(/C(CCC(=O)Nc1ccc(Cl)cc1)=N/NC(=O)c1cc2ccccc2cc1O)c1ccccc1 (stereo not given)
Solution: 32.6 µM (inactive)

Problem: Queued: N#Cc1nc(CCC(c2nc(C#N)c(N)o2)N2C(=O)c3ccccc3C2=O)oc1N (stereo not given)
Solution: > 100 µM (inactive)

Problem: Queued: Oc1c(C2=NNC(c3cccs3)C2)ccc2ccccc12 (stereo not given)
Solution: 14.4 µM (inactive)

Problem: Queued: COC(=O)[C@@H](COC(=O)/C=C/c1ccc(OC(C)=O)c(OC(C)=O)c1)NC(=O)/C=C/c1ccc(OC(C)=O)c(OC(C)=O)c1
Solution: 14.6 µM (inactive)

Problem: Queued: CCOc1ccccc1NC(=O)C(=O)Cc1nc2ccccc2s1
Solution: > 100 µM (inactive)

Problem: Queued: N#CC(C#N)=C1NC(=O)C(c2ccccc2)C(=O)N1 (stereo not given)
Solution: > 100 µM (inactive)

Problem: Queued: O/N=N/c1ccc(-c2ccccc2)cn1
Solution: 9.08 µM (inactive)

###

# Test system: MDA-MB-435
# test-name: NCI tumour cell line growth inhibition, 48 h
Calls of active or inactive are those of the source. No stated cut-off is given here; in the data, active = GI50 up to about 1.1 µM and inactive = higher.
Quick reference for GI50 among some compounds

compound="COC(=O)[C@]1(C)CC[C@]2(C)CC[C@]3(C)C4[C@H]5Oc6c(cc7c(c6C)CCC6[C@@]7(C)CC[C@@]7(C)C8[C@](C)(CCC[C@@]8(C)C(=O)OC)CC[C@]67C)O[C@H]5c5c(cc6c(c5C)O[C@@]5(C)C7=CC=C8[C@@](C)(CC[C@@]9(C)[C@@H]%10C[C@](C)(C(=O)OC)CC[C@]%10(C)CC[C@]89C)C7=CC(=O)[C@@]5(O)O6)[C@]4(C)CC[C@@]3(C)C2C1 (some centres not stated)" system_under_test=MDA-MB-435 value_reported="3.56 µM (inactive)"

Here is the next item to consider.
Problem: Would you kindly share the measured GI50 for CCOC(=O)c1nc2c(Cl)c3ncccc3cc2[nH]c1=O ?
Solution: 32.1 µM (inactive)

###

Quick reference for GI50 among some molecules
# System: M14
# test-name: NCI tumour cell line growth inhibition, 48 h
Activity calls are given as the source filed them. Cut-off read from the data, not from the text of the source: active = GI50 up to about 1.1 µM and inactive = higher.

molecule=COc1c(O)c(OC)c(C(=O)/C=C/c2ccccc2)c(O)c1OC value_reported="37.6 µM (inactive)"
molecule=Cc1nc(Nc2nc3ccccc3[nH]2)nc(Cl)c1CCCl value_reported="> 100 µM (inactive)"
molecule=C=CCN1COc2c(cc3c4c(cccc24)C(=O)O3)C1 value_reported="22.9 µM (inactive)"
molecule="CC(=O)C1C(=O)C(=O)N(c2cccc(C)c2C)C1=O (stereo unspecified)" value_reported="> 100 µM (inactive)"
molecule="CCCCCCCCCCCCCCCC(=O)OCC1CCCN2CCCCC12 (stereo unspecified)" value_reported="> 100 µM (inactive)"

Here is the next item to consider.
Problem: Would you kindly share the measured GI50 for Nc1cc(-c2ccc(Cl)cc2)nn1-c1nc2ccccc2nc1-c1ccccc1 ?
Solution: > 100 µM (inactive)
